# tested-target: CYP3A4 (Homo sapiens, UniProt P08684)
# Sequence (P08684 whole entry): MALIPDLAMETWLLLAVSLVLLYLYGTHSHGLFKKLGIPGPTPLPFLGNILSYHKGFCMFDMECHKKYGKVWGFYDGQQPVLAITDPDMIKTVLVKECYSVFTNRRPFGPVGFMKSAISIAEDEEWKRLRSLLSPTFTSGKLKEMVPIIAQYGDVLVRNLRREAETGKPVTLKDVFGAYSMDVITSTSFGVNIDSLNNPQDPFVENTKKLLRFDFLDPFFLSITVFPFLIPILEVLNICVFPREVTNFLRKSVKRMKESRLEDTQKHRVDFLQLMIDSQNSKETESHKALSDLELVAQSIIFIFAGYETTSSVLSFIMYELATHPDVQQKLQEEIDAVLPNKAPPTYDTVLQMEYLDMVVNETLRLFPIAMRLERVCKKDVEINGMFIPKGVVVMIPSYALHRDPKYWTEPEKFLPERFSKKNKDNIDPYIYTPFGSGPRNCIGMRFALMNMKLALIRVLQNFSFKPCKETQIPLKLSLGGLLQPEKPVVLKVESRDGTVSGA
# assay-comment: CYP3A4 inhibition assay
# Type: biochemical
# condition-set: human, recombinant CYP3A4 (BD Gentest), probe dibenzyl fluorescein (DBF)
measure: IC50 (µM)

In [3]: df
Out[3]:
                                   compound  measure  endpoint_value
0  CCCCCC(=O)OCCCc1cc2c(c(OC)c1OC)OCO2 [Compound 4d]     IC50             3.3
